Each entry below lists one item and its recorded MIC value.
- Tested on: B. subtilis ATCC 6633
- Assay notes: MIC against standard strains (Table 1), B. subtilis ATCC 6633
- Type: cell-based
- Condition info: Bacillus subtilis, ATCC6633, Muller-Hinton agar, overnight 37° C., read-out: MIC (minimum growth inhibitory concentration)
Field: numeric (µg/mL). Do not append units.

# example entries with known answers
Compound | Numeric value
NC(=O)Nc1ccc[n+](C/C=C/C2=C(C(=O)[O-])N3C(=O)[C@@H](NC(=O)/C(=N\O)c4csc(N)n4)[C@H]3SC2)c1 | 0.2
CO[C@@]1(NC(=O)CSC(F)F)C(=O)N2C(C(=O)O)=C(CSc3nnnn3CCO)CO[C@@H]21 [FMOX, flomoxef, reference compound] | 0.2
NC(=O)c1ccc[n+](C/C=C/C2=C(C(=O)[O-])N3C(=O)[C@@H](NC(=O)/C(=N\O)c4csc(N)n4)[C@H]3SC2)c1 | 0.1
CN(C)CCn1nnnc1SCC1=C(C(=O)O)N2C(=O)[C@@H](NC(=O)Cc3csc(N)n3)[C@H]2SC1 [CTM, cefotiam, reference compound] | 0.39

So for CO/N=C(\C(=O)N[C@@H]1C(=O)N2C(C(=O)[O-])=C(/C=C/C[n+]3cccc(-c4csc(N)n4)c3)CS[C@H]12)c1csc(N)n1 , the logged MIC turned out to be 0.39
